Target system: P. aeruginosa LpxC (Pseudomonas aeruginosa (strain ATCC 15692 / DSM 22644 / CIP 104116 / JCM 14847 / LMG 12228 / 1C / PRS 101 / PAO1))
Run description: P. aeruginosa LpxC Inhibition Assay
Type: biochemical
Assay setup: 1 nM P. aeruginosa LpxC, 2 μM substrate, LC-MS/MS; read-out: PA LpxC IC50
Recorded metric: IC50 (nM)

Tell me the measured IC50 of Cc1cc(-c2ccc(C3=NO[C@@H](C[C@](C)(C(=O)NO)S(C)(=O)=O)C3)cc2F)cc(C)n1 , please.
4

Give the measured IC50 of C[C@@](C[C@H]1CC(c2ccc(-n3nccn3)cc2)=NO1)(C(=O)NO)S(C)(=O)=O .
5

---

Target system: P. aeruginosa LpxC (Pseudomonas aeruginosa (strain ATCC 15692 / DSM 22644 / CIP 104116 / JCM 14847 / LMG 12228 / 1C / PRS 101 / PAO1), UniProt P47205)
Run description: P. aeruginosa LpxC Inhibition Assay
Assay type: biochemical
Assay setup: 1 nM P. aeruginosa LpxC, 2 μM substrate, LC-MS/MS; read-out: PA LpxC IC50
pIC50: −log10 of the molar value.
A collection of compounds and their measured pIC50

Any idea what pIC50 was measured for COCC(C)(O)c1ccc(-c2ccc(C3=NO[C@@H](C[C@](C)(C(=O)NO)S(C)(=O)=O)C3)cc2)cc1 (stereo partly shown) ?
9.10

---
Could you tell me which pIC50 is on file for C[C@@](C[C@H]1CC(c2ccc(-c3ccc(C(O)CCO)cc3)cc2)=NO1)(C(=O)NO)S(C)(=O)=O (stereo partly shown) ?
> 9.30

Name the recorded pIC50 for C[C@@H](O)[C@@H](O)Cc1ccc(-c2ccc(C3=NO[C@@H](C[C@](C)(C(=O)NO)S(C)(=O)=O)C3)cc2)cc1 .
> 9.30

Bench note: what pIC50 did C[C@@](C[C@H]1CC(c2ccc(-c3ccncc3Cl)cc2)=NO1)(C(=O)NO)S(C)(=O)=O show?
> 9.30

Look up pIC50: C[C@@](C[C@H]1CC(c2ccc(-c3ccc(CN4CCOCC4)cc3)cc2)=NO1)(C(=O)NO)S(C)(=O)=O
9.22

What does the record list as pIC50 for C[C@@](C[C@H]1CC(c2ccc(-c3ccnc(C(F)(F)F)c3)cc2)=NO1)(C(=O)NO)S(C)(=O)=O ?
8.70

# lookup: pIC50 of CC(CC1CC(c2ccc(C#CCCO)cc2)=NO1)(C(=O)NO)S(C)(=O)=O (single isomer, unassigned)
> 9.30

# get_value(readout='pIC50', item= Cc1ccc(-c2ccc(C3=NO[C@@H](C[C@](C)(C(=O)NO)S(C)(=O)=O)C3)cc2)cn1 )
> 9.30

Dear colleague, I am looking for the recorded pIC50 of the following compound: CO[C@@H](CO)Cc1ccc(-c2ccc(C3=NO[C@@H](C[C@](C)(C(=O)NO)S(C)(=O)=O)C3)cc2)cc1
> 9.30

State the recorded pIC50 for this entry: C[C@@](C[C@H]1CC(c2ccc(-c3c(F)cncc3F)cc2)=NO1)(C(=O)NO)S(C)(=O)=O
> 9.30

Query: pIC50; subject: C[C@@](C[C@H]1CC(c2ccc(C#CCCF)cc2)=NO1)(C(=O)NO)S(C)(=O)=O
> 9.30

Requested field: pIC50. Item: CCc1ccc(C2=NO[C@@H](C[C@](C)(C(=O)NO)S(C)(=O)=O)C2)cc1
9.00

Given the compound C[C@@](C[C@H]1CC(c2ccc(-c3ccsc3)cc2)=NO1)(C(=O)NO)S(C)(=O)=O , what is its reported pIC50?
> 9.30

Which pIC50 value belongs to CC(O)C#CC#Cc1ccc(C2=NO[C@@H](C[C@](C)(C(=O)NO)S(C)(=O)=O)C2)cc1 (stereo partly shown) ?
9.30

I'd like to know its pIC50. The compound in question is CCC#Cc1ccc(C2=NO[C@@H](C[C@](C)(C(=O)NO)S(C)(=O)=O)C2)cc1
> 9.30

Reported pIC50, compound COc1ccc(-c2ccc(C3=NO[C@@H](C[C@](C)(C(=O)NO)S(C)(=O)=O)C3)cc2)cn1 : ____
> 9.30

Quick check: pIC50 of Cc1cc(C2=NO[C@@H](C[C@](C)(C(=O)NO)S(C)(=O)=O)C2)ccc1-c1ccc(C[C@@H](C)O)cc1 ?
> 9.30

Using the record for C[C@@](C[C@H]1CC(c2ccc(-c3ccncc3C(F)(F)F)cc2)=NO1)(C(=O)NO)S(C)(=O)=O , report its pIC50.
> 9.30

Report pIC50 for COc1cc(F)c(-c2ccc(C3=NO[C@@H](C[C@](C)(C(=O)NO)S(C)(=O)=O)C3)cc2)c(F)c1 please.
> 9.30

Can you share its pIC50? I mean this compound: CC#Cc1ccc(C2=NOC(CC(C)(C(=O)NO)S(C)(=O)=O)C2)nc1 (single isomer, unassigned)
7.77

# input compound: C[C@@](C[C@H]1CC(c2ccc(-c3ccncc3)cc2)=NO1)(C(=O)NO)S(C)(=O)=O ; wanted: its pIC50
> 9.30

Bench note: what pIC50 did C[C@@](C[C@H]1CC(c2ccc(-c3ccc(CO)nc3)cc2)=NO1)(C(=O)NO)S(C)(=O)=O show?
> 9.30

---

Target system: P. aeruginosa LpxC (Pseudomonas aeruginosa (strain ATCC 15692 / DSM 22644 / CIP 104116 / JCM 14847 / LMG 12228 / 1C / PRS 101 / PAO1), UniProt P47205)
Run description: P. aeruginosa LpxC Inhibition Assay
Type: biochemical
Assay setup: 1 nM P. aeruginosa LpxC, 2 μM substrate, LC-MS/MS; read-out: PA LpxC IC50
Recorded metric: IC50 (nM)

Completed entries (count: 5):
Fill in: IC50 of C[C@@](C[C@H]1CC(c2ccc(-c3ccc(CO)cc3)cc2)=NO1)(C(=O)NO)S(C)(=O)=O is ___
0.5

Data request, read-out IC50, for C[C@H](O)c1ccc(-c2ccc(C3=NO[C@@H](C[C@](C)(C(=O)NO)S(C)(=O)=O)C3)cc2)cc1
1

For the compound shown here, CCC#Cc1ccc(C2=NOC(CC(C)(C(=O)NO)S(C)(=O)=O)C2)cc1 (single isomer, unassigned) , give the reported IC50.
0.5

Look at this compound and give its reported IC50. C[C@@](C[C@H]1CC(c2ccc(C#CC3CCOCC3)cc2)=NO1)(C(=O)NO)S(C)(=O)=O
0.6

Name the recorded IC50 for COCC1CC(C#Cc2ccc(C3=NO[C@@H](C[C@](C)(C(=O)NO)S(C)(=O)=O)C3)cc2)C1 (some centres unmarked) [Compound 53] .
0.5

[I] CC(C)(O)[C@H]1C[C@H](C#Cc2ccc(C3=NO[C@@H](C[C@](C)(C(=O)NO)S(C)(=O)=O)C3)cc2)C1 [Compound 39A]
[II] CCc1cc(-c2ccc(C3=NO[C@@H](C[C@](C)(C(=O)NO)S(C)(=O)=O)C3)cc2)ccn1
Return label of the item with the larger IC50. Candidates: I , II . Pick one; state its label.
II
(II: 6 nM, I: 0.5 nM)

---

Target system: P. aeruginosa LpxC (Pseudomonas aeruginosa (strain ATCC 15692 / DSM 22644 / CIP 104116 / JCM 14847 / LMG 12228 / 1C / PRS 101 / PAO1))
Run description: P. aeruginosa LpxC Inhibition Assay
Assay type: biochemical
Assay setup: 1 nM P. aeruginosa LpxC, 2 μM substrate, LC-MS/MS; read-out: PA LpxC IC50
pIC50: −log10 of the molar value.
# reported pIC50; entries follow

Examples with their reported pIC50 follow.
Quick one: pIC50 for CC(CC1CC(c2ccc(C#CC3CC3)cc2F)=NO1)(C(=O)NO)S(C)(=O)=O (single isomer, unassigned) ?
> 9.30

For the compound shown here, COc1ccc(-c2ccc(C3=NO[C@@H](C[C@](C)(C(=O)NO)S(C)(=O)=O)C3)cc2F)cn1 , give the reported pIC50.
9.00

So what does the record say about pIC50 for Cc1cc(CO)ccc1-c1ccc(C2=NO[C@@H](C[C@](C)(C(=O)NO)S(C)(=O)=O)C2)cc1 ?
> 9.30

Find the recorded pIC50 belonging to C[C@@](C[C@H]1CC(c2ccc(-c3ccc(CC#N)cc3)c(F)c2)=NO1)(C(=O)NO)S(C)(=O)=O and report it.
9.30

Give its pIC50 value. Item: C[C@@](C[C@H]1CC(c2ccc(-c3ccncc3F)c(F)c2)=NO1)(C(=O)NO)S(C)(=O)=O
> 9.30

Now for the compound whose pIC50 we want.
Bench note: what pIC50 did C[C@@H](O)Cc1ccc(-c2c(F)cc(C3=NO[C@@H](C[C@](C)(C(=O)NO)S(C)(=O)=O)C3)cc2F)cc1 show?
> 9.30
